Provide the reported pKd of each item.
- target or system: T1, Plasmodium falciparum histidine-rich protein II (HRP-II) (Plasmodium falciparum, UniProt P05227 22-332)
- T1 construct: Coating antigen of all ELISAs; also called HRP-II protein; MA-HRPII Ag protein
- T1 sequence (looked up): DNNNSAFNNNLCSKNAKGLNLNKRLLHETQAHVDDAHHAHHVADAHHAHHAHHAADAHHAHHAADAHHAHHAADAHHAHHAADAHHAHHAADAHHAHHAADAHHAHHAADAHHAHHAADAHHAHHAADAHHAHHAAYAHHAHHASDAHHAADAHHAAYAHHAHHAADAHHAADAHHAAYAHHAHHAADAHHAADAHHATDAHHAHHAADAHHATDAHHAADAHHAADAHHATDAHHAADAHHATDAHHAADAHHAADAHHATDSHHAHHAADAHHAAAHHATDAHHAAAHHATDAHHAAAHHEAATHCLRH
- assay name: indirect ELISA, four antigen coating concentrations;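 further: optical density read across an antibody dilution series at each antigen coating level, curves plotted on log scale, KD derived as reciprocal of the averaged constant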
Quick note: pKd means taking -log10 of the concentration in moles per liter.

Exercise: Which measured pKd value corresponds to Mutation 1-46 (antibody, mouse IgG2b, kappa, V domains shown, Mutation 1 as framework) VH: EVQLQQSGPEVVKPGASVKISCKASGYTITDYYMNWVKQSHGKGLEWIGDINPINGGTAYNQKFRDKATLTVDKSSNTAYMELRSLTSEDSALYYCTRGAEDYWGQGTTLTVSS VL: DVVLTQTPLSLSVTIGQPASISCKSSQSILYSQGKIYLNWFQQRPGQSPKRLMYQVSKLDPGIPDRFSGSGSETDFTLKISRVEAEDLGVYYCLQGTYTPQTFGGGTKLEIKR ?
Solution: 10.14

Exercise: Sample Mutation 1-28 (antibody, mouse IgG2b, kappa, V domains shown, Mutation 1 as framework) VH: EVQLQQSGPEVVKPGASVKISCKASGYTITDYYMNWVKQSHGKGLEWIGDINPIQGGTAYQQKFRDKATLTVDKSSNTAYMELRSLTSEDSALYYCTKGAEDYWGQGTTLTVSS VL: DVVLTQTPLSLSVTIGQPASISCKSSQSIIYSNGKIYLNWFQQRPGQSPKRLMYQVSKLDPGIPDRFSGSGSETDFTLKISRVEAEDLGVYYCLQATYTPQTFGGGTKLEIKR — what was its pKd?
Solution: 10.92

Exercise: Return reported pKd; argument: Mutation 1-32 (antibody, mouse IgG2b, kappa, V domains shown, Mutation 1 as framework) VH: EVQLQQSGPEVVKPGASVKISCKASGYTITDYYMNWVKQSHGKGLEWIGDVNPIQGGTAYQQKFRDKATLTVDKSSNTAYMELRSLTSEDSALYYCTRGAEDYWGQGTTLTVSS VL: DVVLTQTPLSLSVTIGQPASISCKSSQSLLYSNGKIYLNWFQQRPGQSPKRLMYQLSKLDPGIPDRFSGSGSETDFTLKISRVEAEDLGVYYCLQATYYPQTFGGGTKLEIKR
Solution: 9.61
